- test.target: T1, human GLP-1 receptor (human, UniProt P43220 24-463)
- T1 construct: whole, on cells; also called hGLP-1
- procedure.summary: SPA displacement of [125I]-GLP-1(7-36)NH2 from BHK membranes with human GLP-1 receptor, high HSA (2.0%)
pIC50: −log10 of the molar value. Numbered stars: 1 amine (or outer) side, 2 acyl side, 3 side chain; on linkers, the order of the positions; unused ones are H or OH. Square brackets hold non-standard residues; d marks the D form. Side chains are listed from the residue outwards. Ends that are not written are not given here. * marks the point of attachment. Dodecanoyl(12-OPh(4-COOH)) = O=C(O)c1ccc(OCCCCCCCCCCCC(=O)*)cc1; Undecanoyl(11-OPh(4-COOH)) = O=C(O)c1ccc(OCCCCCCCCCCC(=O)*)cc1; γGlu = O=C(O)[C@H](CCC(=O)[*:2])N[*:1]; εLys = N[C@@H](CCCCN[*:1])C(=O)[*:2]; AEEA = NCCOCCOCC(=O)O; Aib = CC(C)(N)C(=O)O
Recorded pIC50 by entry

binder | pIC50
HXEGTFTSDVSSYLEGQAAKEFIAWLVQGRK (Aib at 8; Lys 26 and Lys 37 each acylated at the epsilon-amino group with the side chain given in the name (numbering of GLP-1(7-37), His = 7)) | 6.49
H[Aib]EGTFTSDVSSYLEEQAAK([εLys-γGlu-γGlu-Undecanoyl(11-OPh(4-COOH))])EFIEWLVRGRK([εLys-γGlu-γGlu-Undecanoyl(11-OPh(4-COOH))])E (X stands for Aib) | 6.91
H[Aib]EGTFTSDVSSYLEEQAAK([εLys-AEEA-AEEA-γGlu-Undecanoyl(11-OPh(4-COOH))])EFIAWLVRGRK([εLys-AEEA-AEEA-γGlu-Undecanoyl(11-OPh(4-COOH))]) | 6.60
H[Aib]EGTFTSDVSSYLEEQAAK([εLys-AEEA-AEEA-γGlu-Dodecanoyl(12-OPh(4-COOH))])EFIAWLVRGRK([εLys-AEEA-AEEA-γGlu-Dodecanoyl(12-OPh(4-COOH))]) | 6.32
HXEGTFTSDVSSYLEGQAAKEFIAWLVHGRK (Aib at 8; Lys 26 and Lys 37 each acylated at the epsilon-amino group with the side chain given in the name (numbering of GLP-1(7-37), His = 7)) | 7.15
H[Aib]EGTFTSDVSSYLEEQAAK([εLys-γGlu-γGlu-Undecanoyl(11-OPh(4-COOH))])EFIEWLVRGRK([εLys-γGlu-γGlu-Undecanoyl(11-OPh(4-COOH))]) | 6.19
